biological target: serotonin 4 receptor (Cavia porcellus, UniProt O70528); construct: from tissue; host or cells: ileum longitudinal muscle strips of Hartley guinea pigs; test: Stimulating action test on serotonin 4 receptor: twitch responses in electrically stimulated longitudinal muscle strips of guinea pig ileum; type: cell-based, guinea pig (Hartley)
Sequence (O70528 whole entry): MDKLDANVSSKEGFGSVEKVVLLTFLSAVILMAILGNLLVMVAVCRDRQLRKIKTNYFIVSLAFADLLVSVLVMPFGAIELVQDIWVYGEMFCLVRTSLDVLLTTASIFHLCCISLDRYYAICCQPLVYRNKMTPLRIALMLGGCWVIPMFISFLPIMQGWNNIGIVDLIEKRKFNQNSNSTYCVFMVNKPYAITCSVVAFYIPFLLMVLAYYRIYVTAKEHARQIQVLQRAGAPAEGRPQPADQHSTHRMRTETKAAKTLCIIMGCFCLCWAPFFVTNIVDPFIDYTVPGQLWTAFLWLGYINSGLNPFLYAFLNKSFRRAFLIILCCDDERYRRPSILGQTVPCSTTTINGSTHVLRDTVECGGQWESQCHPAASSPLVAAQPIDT
Parameter: pEC50
Lab note — pEC50 values are minus log10 of concentrations in M.

What value of pEC50 has been reported for the following molecule? CC(C)n1c(=O)c(C(=O)O[C@H]2C[C@H]3CC[C@@H](C2)N3C)cc2ccccc21
7.67

----------
Assay: Toxicity examination of mouse single administration (acute toxicity)
Conditions: in vivo, single oral administration, read-out: LD value
Experimental: With respect to toxicity of Compound (1) represented by Formula (I) which is an effective ingredient of the pharmaceutical composition of the present invention, as a result of the toxicity examination of mouse single administration (acute toxicity), the LD value is more than 500 mg/kg by oral administration.
Parameter: LD50

What value of LD50 has been reported for the following compound? CC(C)n1c(=O)c(C(=O)O[C@H]2C[C@H]3CC[C@@H](C2)N3C)cc2ccccc21
> 500 mg/kg
